# Test name: In vivo pharmacokinetics in rats
# Set-up: species or system rat
# Measurement setup: male, SD, rat, plasma, iv, 5 mg/kg, intravenously, 5 mg/kg, Mean, read-out: Cmax
Where a name gives a salt, the structure may show the parent alone.

{"columns": ["Molecule", "Cmax, ng/mL"],
 "data": [
  ["COCCOc1ccc2c(c1)ncn2-c1ccc(NC(=O)Nc2cc(C(C)(C)C)n[nH]2)cc1 [Compound 77 Mesylate]", 18700]
]}

---

# Test name: In vivo pharmacokinetics in rats
# Design: species or system rat
# Measurement setup: male, SD, rat, plasma, iv, 5 mg/kg, intravenously, 5 mg/kg, Mean, read-out: AUC(0-t)
Structures can show the parent of a compound that is named as a salt.
Measure name: AUC(0-t) (ng·h/mL)

{"columns": ["Compound", "Measure name", "Numeric readout"],
 "data": [
  ["COCCOc1ccc2c(c1)ncn2-c1ccc(NC(=O)Nc2cc(C(C)(C)C)n[nH]2)cc1 [Compound 77 Mesylate]", "AUC(0-t)", 14400]
]}
